experiment: Acute intervention: nutrikinetics of plasma metabolites after ingestion of L. citriodora extract (untargeted HPLC-ESI-QTOF-MS); details: in vivo
Counter-ions that a name gives are not always drawn.

Compound | mean chromatographic area in plasma, T2
O=C(O)C=Cc1ccc(OS(=O)(=O)O)c(O)c1 (single isomer, unassigned; isomer 1) [caffeic acid 4-sulfate isomer 1, caffeic acid 4-sulfate] | 280
O=C(O)CCCCCCCCC(=O)O [sebacic acid isomer, sebacic acid] | 35
O=C(O)C=Cc1ccc(OS(=O)(=O)O)c(O)c1 (single isomer, unassigned; isomer 2) [caffeic acid 4-sulfate isomer 2, caffeic acid 4-sulfate] | 277
COc1cc(CC(=O)O)ccc1OS(=O)(=O)O [homovanillic acid sulfate isomer 1, homovanillic acid sulfate] | 19
O=C(O)CCCCCCCCC(=O)O [sebacic acid Isomer 2, sebacic acid] | 86

----------
Assay: Acute intervention: nutrikinetics of plasma metabolites after ingestion of O. europaea extract (untargeted HPLC-ESI-QTOF-MS)
Conditions: 10 h after O. europaea extract
Description: A total of 25 healthy individuals participated, with an average age of 27 ± 9 years and a mean body mass index (BMI) of 23 ± 3 kg/m^2. […] Metabolite nutrikinetics were studied using PKSolver, an add-in program for pharmacokinetic data analysis in Microsoft Excel. The time to reach the maximum concentration (observed Tmax) was calculated for each significant metabolite. As an untargeted metabolomic approach was used to detect the circulating metabolites, these were not quantified. […]
Counter-ions that a name gives are not always drawn.

Molecule | mean chromatographic area in plasma, T10
COc1cc(C(=O)O)ccc1OS(=O)(=O)O [vanillic acid 4-O-sulfate isomer 1, vanillic acid 4-O-sulfate] | 60
COc1cc(CCO)ccc1OS(=O)(=O)O [homovanillyl alcohol sulfate] | 0
C[C@]12CC[C@@H](O[C@@H]3O[C@H](C(=O)O)[C@@H](O)[C@H](O)[C@H]3O)C[C@@H]1CC[C@@H]1[C@@H]2C(=O)C[C@@]2(C)[C@H]1CC[C@]2(O)[C@@H](O)CO [cortolone-3-glucuronide] | 0
COc1cc(C(=O)O)ccc1OC1OC(C(=O)O)C(O)C(O)C1O (centres unmarked) [vanillic acid glucuronide] | 0
COC(=O)C1=CO[C@H](O)/C(=C/CO)[C@@H]1CC(=O)OCCc1ccc(O)c(O)c1 [10-hydroxyoleuropein aglycone] | 0
COc1cc(C=CC(=O)O)ccc1OS(=O)(=O)O [ferulic acid 4-sulfate] | 0
Oc1cc(O)c2c(c1)O[C@H](c1ccc(O)c(O)c1)[C@H](O)[C@H]2SCc1ccccc1 [4β-benzylthioepicatechin] | 0
O=C(O)CCCCCCCCC(=O)O [decanedioic acid isomer 2, decanedioic acid] | 60
COc1cc(C)cc(OC)c1OC | 0
O=C(Oc1cc(O)c2c(c1)O[C@H](c1cc(O)c(O)c(O)c1)[C@H](O)C2)c1cc(O)c(O)c(O)c1 [epigallocatechin 7-O-gallate] | 0
COc1cc(-c2oc3cc(O[C@@H]4O[C@@H](C)[C@H](O)[C@@H](O)[C@H]4O)cc(O)c3c(=O)c2O[C@@H]2O[C@H](CO)[C@@H](O)[C@H](O)[C@H]2O)ccc1O | 0

----------
assay: Acute intervention: nutrikinetics of plasma metabolites after ingestion of O. europaea extract (untargeted HPLC-ESI-QTOF-MS); settings: in vivo
Structures can show the parent of a compound that is named as a salt.

Compound | mean chromatographic area in plasma, T10
COc1cc(CCC(=O)O)ccc1O[C@@H]1O[C@H](C(=O)O)[C@@H](O)[C@H](O)[C@H]1O [dihydroferulic acid 4-O-glucuronide] | 41
COc1cc(C=O)ccc1O[C@@H]1O[C@H](C(=O)O)[C@@H](O)[C@H](O)[C@H]1O [vanillin glucuronide] | 0
C=Cc1ccc(O)c(OC)c1 [p-vinylguaiacol] | 0
O=C(O)CCCCCCCCC(=O)O [debacic acid isomer 3, sebacic acid] | 141
O=c1cc(-c2ccc(O)cc2)oc2c([C@@H]3O[C@H](CO)[C@@H](O)[C@H](O)[C@H]3O)c(O)c([C@@H]3O[C@H](CO)[C@@H](O)[C@H](O)[C@H]3O)c(O)c12 [vicenin-2] | 0
COc1cc(CC(=O)O)ccc1OS(=O)(=O)O [homovanillic acid sulfate isomer 1, homovanillic acid sulfate] | 75

Reference source for all entries: paper PMC11544713
